- Test system: 817829-284-R-J1-PDC complex spheroids, viability;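 also: spheroids exposed to agents for 7 days before readout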
- ASSAY: Anticancer human tumor 817829-284-R-J1-PDC patient-derived colon adenocarcinoma cell line growth inhibition [GQUAD]; active = viability on the fitted dose curve at most 10% of control; inactive = the rest
- RECORDED_CONDITIONS: second compound 10 µM; first compound 3.16 µM
Answer with one of the outcomes given here: t for active, f for inactive

Query string: What outcome does the record of this test show for CCCS(=O)(=O)Nc1ccc(F)c(C(=O)c2c[nH]c3ncc(-c4ccc(Cl)cc4)cc23)c1F + Cc1[nH]c2ccc(F)cc2c1-c1nc2c3cccnc3c3ncccc3c2[nH]1 ?
Result string: t

Query string: Status in this test for CC1COCCN1c1cc(-c2ccnn2C)c2ccnc(-c3ccn[nH]3)c2n1 (stereo not given) + CN(C)c1ccc(Nc2c3ccc(NC(=O)CCN4CCCC4)cc3nc3cc(NC(=O)CCN4CCCC4)ccc23)cc1 ?
Result string: t

Query string: Lab log entry: COc1ccc([C@@H](O)c2cc(-c3ncnc4cc(N5CCOCC5)ccc34)c(F)cc2Cl)nn1 + Cc1[nH]c2ccc(F)cc2c1-c1nc2c3cccnc3c3ncccc3c2[nH]1 — outcome as called in the assay?
Result string: f

Query string: Outcome logged for CC(=O)O[C@H]1C(=O)[C@@]2(C)[C@H]([C@H](OC(=O)c3ccccc3)[C@]3(O)C[C@H](OC(=O)[C@H](O)[C@@H](NC(=O)c4ccccc4)c4ccccc4)C(C)=C1C3(C)C)[C@]1(OC(C)=O)CO[C@@H]1C[C@@H]2O + CN(C)c1ccc(Nc2c3ccc(NC(=O)CCN4CCCC4)cc3nc3cc(NC(=O)CCN4CCCC4)ccc23)cc1 in this assay:
Result string: t

Query string: For this compound, state the assay outcome: COc1cc(C2c3cc4c(cc3C(OC3OC5COC(C)OC5C(O)C3O)C3COC(=O)C23)OCO4)cc(OC)c1O (stereo not given) + Cc1cnc(CNC(=O)c2c(=O)c3ccc(N4CCCN(C)CC4)nc3n3c2sc2ccccc23)cn1
Result string: t

Query string: Hi, do you know how C=CCn1c(=O)c2cnc(Nc3ccc(N4CCN(C)CC4)cc3)nc2n1-c1cccc(C(C)(C)O)n1 + Cc1[nH]c2ccc(F)cc2c1-c1nc2c3cccnc3c3ncccc3c2[nH]1 came out in this test?
Result string: t

Query string: Recorded test outcome, item CC1COCCN1c1cc(C2(O)CC3CCC(C2)O3)c2cnn(-c3ccn[nH]3)c2n1 (stereo not given) + Cc1[nH]c2ccc(F)cc2c1-c1nc2c3cccnc3c3ncccc3c2[nH]1
Result string: t

Query string: What did the test return for C=CCn1c(=O)c2cnc(Nc3ccc(N4CCN(C)CC4)cc3)nc2n1-c1cccc(C(C)(C)O)n1 + Cc1cnc(CNC(=O)c2c(=O)c3ccc(N4CCCN(C)CC4)nc3n3c2sc2ccccc23)cn1 ?
Result string: t

Query string: Identify the outcome logged in this assay for the compound shown: CC1COCCN1c1cc(C2(O)CC3CCC(C2)O3)c2cnn(-c3ccn[nH]3)c2n1 (stereo not given) + CN(C)c1ccc(Nc2c3ccc(NC(=O)CCN4CCCC4)cc3nc3cc(NC(=O)CCN4CCCC4)ccc23)cc1
Result string: t

Query string: Hi, do you know how C=CC(=O)N1CCN(c2nc(=O)n(-c3c(C)ccnc3C(C)C)c3nc(-c4c(O)cccc4F)c(F)cc23)C(C)C1 (stereo not given) + Cc1cnc(CNC(=O)c2c(=O)c3ccc(N4CCCN(C)CC4)nc3n3c2sc2ccccc23)cn1 came out in this test?
Result string: t
